# TEST_SUMMARY: Cmax in Sprague-Dawley rat at 10 mg/kg, po
# Format: ADME, organism-based
# Parameters: dose 10 mg/kg, route oral
# RUN_CONDITIONS: in vivo

SMILES_STRUCTURE: C[C@@H](N1CCc2nc(-c3cncnc3)sc2C1)[C@](O)(Cn1cncn1)c1ccc(F)cc1F.O.O=S(=O)(O)O
Cmax [ng/mL]: 164

SMILES_STRUCTURE: C[C@@H](N1CCn2nc(-c3ccc(C#N)nc3)nc2C1)[C@](O)(Cn1cncn1)c1ccc(F)cc1F
Cmax [ng/mL]: 1420

----------
# System: Candida parapsilosis
# TEST_SUMMARY: Antimicrobial activity against Candida parapsilosis 22019 after 24 hrs by serial dilution method
# Format: functional
# RUN_CONDITIONS: Lodderomyces parapsilosis, 22019, 24 h

SMILES_STRUCTURE: CCOC(=O)c1cn2c(n1)CN([C@H](C)[C@](O)(Cn1cncn1)c1ccc(F)cc1F)CC2
READOUT_UNIT: µg/mL
MIC: 0.5

SMILES_STRUCTURE: Cc1ccc(-c2cc3c(s2)CCN([C@H](C)[C@](O)(Cn2cncn2)c2ccc(F)cc2F)C3)cc1
READOUT_UNIT: µg/mL
MIC: 4

SMILES_STRUCTURE: COc1cccc(-c2nc3n(n2)CCN([C@H](C)[C@](O)(Cn2cncn2)c2ccc(F)cc2F)C3)c1
READOUT_UNIT: µg/mL
MIC: 0.25

SMILES_STRUCTURE: C[C@@H](N1CCc2cc(-c3cccnc3)sc2C1)[C@](O)(Cn1cncn1)c1ccc(F)cc1F
READOUT_UNIT: µg/mL
MIC: 1

SMILES_STRUCTURE: C[C@@H](N1CCn2nc(-c3ccc(C(F)(F)F)cc3)nc2C1)[C@](O)(Cn1cncn1)c1ccc(F)cc1F
READOUT_UNIT: µg/mL
MIC: 0.5

SMILES_STRUCTURE: C[C@@H](N1CCc2nc(-c3cncc(F)c3)sc2C1)[C@](O)(Cn1cncn1)c1ccc(F)cc1F
READOUT_UNIT: µg/mL
MIC: 0.25

SMILES_STRUCTURE: C[C@@H](N1CCn2nc(C(F)(F)F)nc2C1)[C@](O)(Cn1cncn1)c1ccc(F)cc1F
READOUT_UNIT: µg/mL
MIC: 0.5

SMILES_STRUCTURE: C[C@@H](N1CCn2nc(-c3cccc(F)c3)nc2C1)[C@](O)(Cn1cncn1)c1ccc(F)cc1F
READOUT_UNIT: µg/mL
MIC: 0.5

SMILES_STRUCTURE: C[C@@H](N1CCc2sc(-c3cccnc3)cc2C1)[C@](O)(Cn1cncn1)c1ccc(F)cc1F
READOUT_UNIT: µg/mL
MIC: 4

SMILES_STRUCTURE: C[C@@H](N1CCc2nc(-c3ccc(Cl)cc3)sc2C1)[C@](O)(Cn1cncn1)c1ccc(F)cc1F
READOUT_UNIT: µg/mL
MIC: 2

SMILES_STRUCTURE: C[C@@H](N1CCn2nc(-c3ccsc3)nc2C1)[C@](O)(Cn1cncn1)c1ccc(F)cc1F
READOUT_UNIT: µg/mL
MIC: 0.125

SMILES_STRUCTURE: COc1ccc(-c2nc3n(n2)CCN([C@H](C)[C@](O)(Cn2cncn2)c2ccc(F)cc2F)C3)cn1
READOUT_UNIT: µg/mL
MIC: 0.125

SMILES_STRUCTURE: Cc1ccc(-c2cn3c(n2)CN([C@H](C)[C@](O)(Cn2cncn2)c2ccc(F)cc2F)CC3)cc1
READOUT_UNIT: µg/mL
MIC: 0.125

SMILES_STRUCTURE: C[C@@H](N1CCc2cc(-c3ccncc3)sc2C1)[C@](O)(Cn1cncn1)c1ccc(F)cc1F
READOUT_UNIT: µg/mL
MIC: 2

SMILES_STRUCTURE: C[C@@H](N1CCn2nnc(-c3ccncc3)c2C1)[C@](O)(Cn1cncn1)c1ccc(F)cc1F
READOUT_UNIT: µg/mL
MIC: 4

SMILES_STRUCTURE: COc1ccc(-c2nc3c(s2)CN([C@H](C)[C@](O)(Cn2cncn2)c2ccc(F)cc2F)CC3)cc1
READOUT_UNIT: µg/mL
MIC: 0.5

SMILES_STRUCTURE: C[C@@H](N1CCc2sc(-c3cccc(F)c3)cc2C1)[C@](O)(Cn1cncn1)c1ccc(F)cc1F
READOUT_UNIT: µg/mL
MIC: 4

SMILES_STRUCTURE: C[C@@H](N1CCn2nnc(-c3cccnc3)c2C1)[C@](O)(Cn1cncn1)c1ccc(F)cc1F
READOUT_UNIT: µg/mL
MIC: 8

SMILES_STRUCTURE: C[C@@H](N1CCc2sc(-c3ccc(Cl)cc3)cc2C1)[C@](O)(Cn1cncn1)c1ccc(F)cc1F
READOUT_UNIT: µg/mL
MIC: 16

SMILES_STRUCTURE: C[C@@H](c1ncncc1F)[C@](O)(Cn1cncn1)c1ccc(F)cc1F
READOUT_UNIT: µg/mL
MIC: 0.125

SMILES_STRUCTURE: C[C@@H](N1CCc2nc(-c3cccc(Br)c3)sc2C1)[C@](O)(Cn1cncn1)c1ccc(F)cc1F
READOUT_UNIT: µg/mL
MIC: 2

SMILES_STRUCTURE: CC(C)c1ccc(-c2nc3c(s2)CN([C@H](C)[C@](O)(Cn2cncn2)c2ccc(F)cc2F)CC3)cc1
READOUT_UNIT: µg/mL
MIC: 0.5

SMILES_STRUCTURE: C[C@@H](N1CCc2sc(-c3ccc(F)cc3)cc2C1)[C@](O)(Cn1cncn1)c1ccc(F)cc1F
READOUT_UNIT: µg/mL
MIC: 8

SMILES_STRUCTURE: C[C@@H](N1CCn2cc(-c3cccc(C(F)(F)F)c3)nc2C1)[C@](O)(Cn1cncn1)c1ccc(F)cc1F
READOUT_UNIT: µg/mL
MIC: 0.125

SMILES_STRUCTURE: C[C@@H](N1CCn2nc(-c3ccc(Cl)cc3)nc2C1)[C@](O)(Cn1cncn1)c1ccc(F)cc1F
READOUT_UNIT: µg/mL
MIC: 0.5

SMILES_STRUCTURE: C[C@@H](N1CCn2nc(-c3ccc(F)nc3)nc2C1)[C@](O)(Cn1cncn1)c1ccc(F)cc1F
READOUT_UNIT: µg/mL
MIC: 0.0625

SMILES_STRUCTURE: COc1cccc(-c2nc3c(s2)CN([C@H](C)[C@](O)(Cn2cncn2)c2ccc(F)cc2F)CC3)c1
READOUT_UNIT: µg/mL
MIC: 1

SMILES_STRUCTURE: C[C@@H](N1CCn2nnc(-c3cncnc3)c2C1)[C@](O)(Cn1cncn1)c1ccc(F)cc1F
READOUT_UNIT: µg/mL
MIC: 8

SMILES_STRUCTURE: C[C@@H](N1CCn2nc(-c3cncnc3)nc2C1)[C@](O)(Cn1cncn1)c1ccc(F)cc1F
READOUT_UNIT: µg/mL
MIC: 0.0625

SMILES_STRUCTURE: CC(C)c1cccc(-c2nc3n(n2)CCN([C@H](C)[C@](O)(Cn2cncn2)c2ccc(F)cc2F)C3)c1
READOUT_UNIT: µg/mL
MIC: 4

SMILES_STRUCTURE: C[C@@H](N1CCn2nnc(-c3ccccc3)c2C1)[C@](O)(Cn1cncn1)c1ccc(F)cc1F
READOUT_UNIT: µg/mL
MIC: 4

SMILES_STRUCTURE: C[C@@H](N1CCc2sc(-c3ccc(C#N)cc3)cc2C1)[C@](O)(Cn1cncn1)c1ccc(F)cc1F
READOUT_UNIT: µg/mL
MIC: 8

SMILES_STRUCTURE: C[C@@H](N1CCn2nc(-c3ccccc3)nc2C1)[C@](O)(Cn1cncn1)c1ccc(F)cc1F
READOUT_UNIT: µg/mL
MIC: 0.125

SMILES_STRUCTURE: C[C@@H](N1CCn2nnc(C(=O)N(C)C)c2C1)[C@](O)(Cn1cncn1)c1ccc(F)cc1F
READOUT_UNIT: µg/mL
MIC: 1

Values were extracted from ChEMBL document CHEMBL3259614.
